Test system: GST-Bcl-2
Test: TR-FRET binding assay, Bcl-2
Settings: TR-FRET Ki values
Description: Tb-anti-GST antibody was purchased from Invitrogen (Catalog No. PV4216). […] The samples were then mixed on a shaker for 1 minute and incubated for an additional 3 hours at room temperature. […] Fluorescence was measured on the Envision (Perkin Elmer) using a 340/35 nm excitation filter and 520/525 (F-Bak peptide) and 495/510 nm (Tb-labeled anti-Histidine antibody) emission filters. […]
Can you tell me Binding selectivity ratio (Bcl-XL Ki/Bcl-2 Ki) for the items I'm about to list?

The observed Binding selectivity ratio (Bcl-XL Ki/Bcl-2 Ki) for CC(C1=C(c2ccc(Cl)cc2)CC(C)(C)CC1)N1CCN(c2ccc(C(=O)NS(=O)(=O)c3ccc(NCC4CCOCC4)c([N+](=O)[O-])c3)c(Oc3ccc4[nH]ccc4c3)c2)CC1 (stereo not drawn) [EXAMPLE 253] when tested with GST-Bcl-2 stands at >4663.3

The observed Binding selectivity ratio (Bcl-XL Ki/Bcl-2 Ki) for CC1(C)CCC(CN2CCN(c3ccc(C(=O)NS(=O)(=O)c4ccc(NN5CCOCC5)c([N+](=O)[O-])c4)c(Oc4ccc5[nH]ccc5c4)c3)CC2)=C(c2ccc(Cl)cc2)C1 [EXAMPLE 260] when tested with GST-Bcl-2 stands at >607.2

The observed Binding selectivity ratio (Bcl-XL Ki/Bcl-2 Ki) for CC1(C)CCC(CN2CCN(c3ccc(C(=O)NS(=O)(=O)c4ccc(NC5CCN(C6CCOCC6)CC5)c([N+](=O)[O-])c4)c(Oc4cccc5[nH]cnc45)c3)CC2)=C(c2ccc(Cl)cc2)C1 [EXAMPLE 417] when tested with GST-Bcl-2 stands at 87.06

* * *

Can you tell me Selectivity Ratio (Platelet EC50/FL5.12/Bcl-2 EC50) for the items I'm about to list?
test system: FL5.12/Bcl-2 cells; experiment: FL5.12/Bcl-2 cell viability assay; assay type: cell-based, murine; conditions: ratio of canine platelet EC50 to FL5.12/Bcl-2 EC50
Format: numeric value only, no unit, no commentary.

For record "CN1CCC(Nc2ccc(S(=O)(=O)NC(=O)c3ccc(N4CCN(Cc5ccccc5-c5ccc(Cl)cc5)CC4)cc3Oc3ccccc3)cc2[N+](=O)[O-])CC1" the listed Selectivity Ratio (Platelet EC50/FL5.12/Bcl-2 EC50) is 495

For record "CN(C)CCCNc1ccc(S(=O)(=O)NC(=O)c2ccc(N3CCN(Cc4ccccc4-c4ccc(Cl)cc4)CC3)cc2Oc2ccccc2)cc1[N+](=O)[O-]" the listed Selectivity Ratio (Platelet EC50/FL5.12/Bcl-2 EC50) is 343

For record "CN(C)CCCNc1ccc(S(=O)(=O)NC(=O)c2ccc(N3CCN(CC4=C(c5ccc(Cl)cc5)CC(C)(C)CC4)CC3)cc2Oc2cccc3[nH]ccc23)cc1[N+](=O)[O-]" the listed Selectivity Ratio (Platelet EC50/FL5.12/Bcl-2 EC50) is 1077

* * *

tested on: GST-Bcl-2; experiment: TR-FRET binding assay, Bcl-2; conditions: TR-FRET Ki values
Can you tell me Binding selectivity ratio (Bcl-XL Ki/Bcl-2 Ki) for the items I'm about to list?

For record "O=C(NS(=O)(=O)c1ccc(NCC2CCOCC2)c([N+](=O)[O-])c1)c1ccc(N2CCN(Cc3cc(OCCN4CCOCC4)ccc3-c3ccc(Cl)cc3)CC2)cc1Oc1cccc2[nH]ccc12" the listed Binding selectivity ratio (Bcl-XL Ki/Bcl-2 Ki) is >4714.3

For record "O=C(NS(=O)(=O)c1ccc(NCCn2ccnn2)c([N+](=O)[O-])c1)c1ccc(N2CCN(Cc3ccccc3-c3ccc(Cl)cc3)CC2)cc1Oc1ccccc1" the listed Binding selectivity ratio (Bcl-XL Ki/Bcl-2 Ki) is 143.3

For record "CO[C@H]1CC[C@H](CNc2ccc(S(=O)(=O)NC(=O)c3ccc(N4CCN(CC5=C(c6ccc(Cl)cc6)CC(C)(C)CC5)CC4)cc3Oc3cccc4[nH]cnc34)cc2[N+](=O)[O-])CC1" the listed Binding selectivity ratio (Bcl-XL Ki/Bcl-2 Ki) is 4549.1

For record "CC1(C)CCC(CN2CCN(c3ccc(C(=O)NS(=O)(=O)c4ccc(NC5CCN(C6CCOCC6)CC5)c([N+](=O)[O-])c4)c(Oc4ccc5[nH]ccc5c4)c3F)CC2)=C(c2ccc(Cl)cc2)C1" the listed Binding selectivity ratio (Bcl-XL Ki/Bcl-2 Ki) is 361.5

For record "CN1CCN(Nc2ccc(S(=O)(=O)NC(=O)c3ccc(N4CCN(CC5=C(c6ccc(Cl)cc6)CC(C)(C)CC5)CC4)cc3Oc3cccc4[nH]ccc34)cc2S(=O)(=O)C(F)(F)F)CC1" the listed Binding selectivity ratio (Bcl-XL Ki/Bcl-2 Ki) is 120.8

For record "CN(C)CCCNc1ccc(S(=O)(=O)NC(=O)c2ccc(N3CCN(CC4=C(c5ccc(Cl)cc5)CC(C)(C)CC4)CC3)cc2Oc2ccc3[nH]ccc3c2)cc1C(F)(F)F" the listed Binding selectivity ratio (Bcl-XL Ki/Bcl-2 Ki) is 17.7

For record "COCCNC(=O)c1ccc(S(=O)(=O)NC(=O)c2ccc(N3CCN(CC4=C(c5ccc(Cl)cc5)CC(C)(C)CC4)CC3)cc2Oc2ccc3[nH]ccc3c2)cc1" the listed Binding selectivity ratio (Bcl-XL Ki/Bcl-2 Ki) is >52.5

For record "CC1(C)CCC(CN2CCN(c3ccc(C(=O)NS(=O)(=O)c4ccc(OCC#CCN5CCOCC5)c([N+](=O)[O-])c4)c(Oc4ccc5[nH]ccc5c4)c3)CC2)=C(c2ccc(Cl)cc2)C1" the listed Binding selectivity ratio (Bcl-XL Ki/Bcl-2 Ki) is 339.6

For record "CC1(C)CCC(CN2CCN(c3ccc(C(=O)NS(=O)(=O)c4ccc(OCC5CCOCC5)c([N+](=O)[O-])c4)c(Oc4cccc5[nH]ccc45)c3)CC2)=C(c2ccc(Cl)cc2)C1" the listed Binding selectivity ratio (Bcl-XL Ki/Bcl-2 Ki) is >5917.7

For record "COCCOCCN1CCO[C@H](CNc2ccc(S(=O)(=O)NC(=O)c3ccc(N4CCN(CC5=C(c6ccc(Cl)cc6)CC(C)(C)CC5)CC4)cc3Oc3cccc4[nH]cnc34)cc2[N+](=O)[O-])C1" the listed Binding selectivity ratio (Bcl-XL Ki/Bcl-2 Ki) is 139.4

* * *

test system: FL5.12/Bcl-2 cells; assay: FL5.12/Bcl-2 cell viability assay; assay type: cell-based, murine; details: ratio of canine platelet EC50 to FL5.12/Bcl-2 EC50
Can you tell me Selectivity Ratio (Platelet EC50/FL5.12/Bcl-2 EC50) for the items I'm about to list?
Format: numeric value only, no unit, no commentary.

For record "CC1(C)CCC(CN2CCN(c3ccc(C(=O)NS(=O)(=O)c4ccc(NCCCN5CCOCC5)c([N+](=O)[O-])c4)c(Oc4cccc5[nH]ccc45)c3)CC2)=C(c2ccc(Cl)cc2)C1" the listed Selectivity Ratio (Platelet EC50/FL5.12/Bcl-2 EC50) is 1614

For record "CN(C)CCOc1cccc(-c2ccc(Cl)cc2)c1CN1CCN(c2ccc(C(=O)NS(=O)(=O)c3ccc(NCCCN4CCCC4)c([N+](=O)[O-])c3)c(Oc3ccccc3)c2)CC1" the listed Selectivity Ratio (Platelet EC50/FL5.12/Bcl-2 EC50) is 32

For record "O=C(NS(=O)(=O)c1ccc(NCC2CCOCC2)c([N+](=O)[O-])c1)c1ccc(N2CCN(Cc3cc(OCCN4CCCC4)ccc3-c3ccc(Cl)cc3)CC2)cc1Oc1ccccc1" the listed Selectivity Ratio (Platelet EC50/FL5.12/Bcl-2 EC50) is 616

* * *

tested on: GST-Bcl-2; test: TR-FRET binding assay, Bcl-2; conditions: TR-FRET Ki values
Classification field: enter true (1) for Binding selectivity ratio (Bcl-XL Ki/Bcl-2 Ki) values not below 2000, false (0) for values below it.

Given the entry "CC1(C)CCC(c2ccc(Cl)cc2)=C(CN2CCN(c3ccc(C(=O)NS(=O)(=O)c4ccc(NCCCN5CCOCC5)c([N+](=O)[O-])c4)c(Oc4ccc5[nH]ccc5c4)c3)CC2)C1" , answer whether its Binding selectivity ratio (Bcl-XL Ki/Bcl-2 Ki) meets or surpasses 2000.
false (0)

Given the entry CC(C1=C(c2ccc(Cl)cc2)CC(C)(C)CC1)N1CCN(c2ccc(C(=O)NS(=O)(=O)c3ccc(NC4CCN(C5CCOCC5)CC4)c([N+](=O)[O-])c3)c(Oc3ccc4[nH]ccc4c3)c2)CC1 (stereo not shown) , answer whether its Binding selectivity ratio (Bcl-XL Ki/Bcl-2 Ki) meets or surpasses 2000.
false (0)

Given the entry CC1(C)CCC(CN2CCN(c3ccc(C(=O)NS(=O)(=O)c4ccc(NCC5CN(C6CC6)CCO5)c([N+](=O)[O-])c4)c(Oc4cccc5[nH]cnc45)c3)CC2)=C(c2ccc(Cl)cc2)C1 (stereo not shown) , answer whether its Binding selectivity ratio (Bcl-XL Ki/Bcl-2 Ki) meets or surpasses 2000.
false (0)

Given the entry "CC1(C)CCC(CN2CCN(c3ccc(C(=O)NS(=O)(=O)c4ccc(OCC5(F)CCOCC5)c(Cl)c4)c(Oc4cccc5[nH]ncc45)c3)CC2)=C(c2ccc(Cl)cc2)C1" , answer whether its Binding selectivity ratio (Bcl-XL Ki/Bcl-2 Ki) meets or surpasses 2000.
true (1)

Given the entry "CC1(C)CCC(CN2CCN(c3ccc(C(=O)NS(=O)(=O)c4ccc(NC5CCN(C6CC6)CC5)c([N+](=O)[O-])c4)c(Oc4cccc5[nH]cnc45)c3)CC2)=C(c2ccc(Cl)cc2)C1" , answer whether its Binding selectivity ratio (Bcl-XL Ki/Bcl-2 Ki) meets or surpasses 2000.
false (0)

Given the entry "CC1(C)CCC(CN2CCN(c3ccc(C(=O)NS(=O)(=O)c4ccc(NC5CCN(CC6CC6)CC5)c([N+](=O)[O-])c4)c(Oc4ccc5[nH]ccc5c4)c3)CC2)=C(c2ccc(Cl)cc2)C1" , answer whether its Binding selectivity ratio (Bcl-XL Ki/Bcl-2 Ki) meets or surpasses 2000.
false (0)

Given the entry "CC1(C)CCC(CN2CCN(c3ccc(C(=O)NS(=O)(=O)c4cnc(OCC5(F)CCOCC5)c(F)c4)c(Oc4cccc5[nH]cnc45)c3)CC2)=C(c2ccc(Cl)cc2)C1" , answer whether its Binding selectivity ratio (Bcl-XL Ki/Bcl-2 Ki) meets or surpasses 2000.
true (1)

Given the entry "O=C(NS(=O)(=O)c1ccc(NCC2CCOCC2)c([N+](=O)[O-])c1)c1ccc(N2CCN(Cc3c(OCCN4CCOCC4)cccc3-c3ccc(Cl)cc3)CC2)cc1Oc1cccc2[nH]ccc12" , answer whether its Binding selectivity ratio (Bcl-XL Ki/Bcl-2 Ki) meets or surpasses 2000.
true (1)
